settings: 300.15 K; 100 kPa; Liquid; Alternating current cell with electrodes
property: electrical conductivity
Kindly report the value followed by its unit.

Summary for this compound, CCCCC[P+](CC)(CC)CC.O=S(=O)([N-]S(=O)(=O)C(F)(F)F)C(F)(F)F : electrical conductivity is 0.223 S/m

Reported electrical conductivity for CCCC[N+]1(C)CCCC1.O=S(=O)([N-]S(=O)(=O)C(F)(F)F)C(F)(F)F was 0.423 S/m

Measured electrical conductivity, CCCC[N+]1(C)CCCCC1.O=S(=O)([N-]S(=O)(=O)C(F)(F)F)C(F)(F)F : 0.153 S/m

# compound CC[P+](CC)(CC)CCOC.O=S(=O)([N-]S(=O)(=O)C(F)(F)F)C(F)(F)F ; its electrical conductivity = 0.411 S/m
